tgt: hT2R54 (Homo sapiens)
Construct: expressed in transfected cells; it overexpresses a promiscuous G protein
assayOverview: Cell-based assay for measuring hT2R54 inhibition (FLIPR calcium, Fluo4AM, acetaminophen as bitter agonist)
appliedConditions: Table 2; cells stably expressing hT2R54 and a promiscuous G protein; read-out: hT2R54 IC50
Reported pIC50 values follow for various compounds
Entry type: numeric. Quantity: pIC50, the -log10 of concentration in molar units.

>  <compound>
CC(=O)c1cc2c(cc1NC(=O)CN1CCN(C(=O)Cc3ccccc3F)CC1)OCO2 [compound 55]

>  <pIC50>
7.15

$$$$
>  <compound>
CC(=O)c1cc2c(cc1NC(=O)CN1CCN(C(=O)Cc3ccncc3)CC1)OCO2 [compound 60]

>  <pIC50>
7.10

$$$$
>  <compound>
CC(=O)c1cc2c(cc1NC(=O)CN1CCN(C(=O)Cc3ccoc3)CC1)OCO2 [compound 324]

>  <pIC50>
7.10

$$$$

Now take the following compound into account.
I'd like to know its pIC50. The compound in question is CC(=O)c1cc2c(cc1NC(=O)CN1CCN(C(=O)Cc3cccc(O)c3)CC1)OCO2 [compound 57]
7.00

====

tgt: hT2R54 (Homo sapiens)
Construct: expressed in transfected cells; it overexpresses a promiscuous G protein
assayOverview: Cell-based assay for measuring hT2R54 inhibition (FLIPR calcium, Fluo4AM, acetaminophen as bitter agonist)
appliedConditions: Table 8; read-out: hT2R54 IC50
recordedEndpoint: pIC50
# pIC50 is unitless: minus log10 of the molar concentration; print number only

>  <molecule>
CCC(=O)N1CCCC(CC(=O)Nc2cc3c(cc2C(C)=O)OCO3)C1 (stereo not shown)

>  <tgt>
hT2R54 (Homo sapiens)

>  <measurement>
7.77

$$$$
>  <molecule>
COC(=O)c1cc2c(cc1NC(=O)CC1CCCN(C(C)=O)C1)OCCO2 (stereo not shown)

>  <tgt>
hT2R54 (Homo sapiens)

>  <measurement>
5.92

$$$$
>  <molecule>
CC(=O)c1cc2c(cc1NC(=O)CC1CCN(C(=O)C3CCCO3)CC1)OCCO2 (stereo not shown)

>  <tgt>
hT2R54 (Homo sapiens)

>  <measurement>
6.35

$$$$
>  <molecule>
CCC(=O)N1CCC(CC(=O)Nc2cc3c(cc2C(C)=O)OCO3)CC1

>  <tgt>
hT2R54 (Homo sapiens)

>  <measurement>
7.07

$$$$
>  <molecule>
COCc1ccc(C(=O)N2CCC(CC(=O)Nc3cc4c(cc3C(C)=O)OCCO4)CC2)s1

>  <tgt>
hT2R54 (Homo sapiens)

>  <measurement>
7.82

$$$$

Would you mind telling me what pIC50 value was observed for `CC(=O)c1cc2c(cc1NC(=O)CC1CCN(C(=O)c3ccon3)CC1)OCO2` ?
5.64

Look up pIC50 for this molecule: CC(=O)c1cc2c(cc1NC(=O)CC1CCN(C(C)=O)C1)OCO2 (stereo not shown)
6.03

What value of pIC50 has been recorded for this entry: `COCc1cc(C(=O)N2CCC(CC(=O)Nc3cc4c(cc3C(C)=O)OCCO4)CC2)no1`
6.80

====

tgt: hT2R54 (Homo sapiens)
Construct: expressed in transfected cells; it overexpresses a promiscuous G protein
Sequence (P59534 1-338): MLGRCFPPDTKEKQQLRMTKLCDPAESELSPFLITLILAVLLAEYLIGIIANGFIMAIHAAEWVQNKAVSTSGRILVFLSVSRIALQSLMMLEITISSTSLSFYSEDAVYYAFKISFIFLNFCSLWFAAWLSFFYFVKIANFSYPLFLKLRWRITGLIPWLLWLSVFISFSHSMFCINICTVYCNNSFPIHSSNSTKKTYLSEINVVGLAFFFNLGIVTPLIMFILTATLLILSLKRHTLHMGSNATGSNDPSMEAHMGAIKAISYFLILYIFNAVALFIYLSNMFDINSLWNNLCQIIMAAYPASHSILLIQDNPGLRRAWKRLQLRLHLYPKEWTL
assayOverview: Cell-based assay for measuring hT2R54 inhibition (FLIPR calcium, Fluo4AM, acetaminophen as bitter agonist)
appliedConditions: Table 8; read-out: hT2R54 IC50
recordedEndpoint: pIC50
A value of pIC50 is the negative decimal logarithm of a concentration given in moles per litre.

>  <compound>
CCOC(=O)N1CCCC(CC(=O)Nc2cc3c(cc2C(C)=O)OCO3)C1 (stereo not shown) [compound 213]

>  <pIC50>
7.30

$$$$

API: the following record is the query input.
Form entry - test system: hT2R54 (Homo sapiens); read-out: pIC50; compound: CC(=O)c1cc2c(cc1NC(=O)CC1CCN(C(=O)c3cccs3)CC1)OCO2 [compound 199]
7.92

====

Form field: pIC50 (one value per entry).
tgt: hT2R54 (Homo sapiens)
Construct: expressed in transfected cells; it overexpresses a promiscuous G protein
assayOverview: Cell-based assay for measuring hT2R54 inhibition (FLIPR calcium, Fluo4AM, acetaminophen as bitter agonist)
appliedConditions: Table 2; cells stably expressing hT2R54 and a promiscuous G protein; read-out: hT2R54 IC50
# pIC50: negative log10 of molar concentration; output just the value

Known pIC50 results, listed for orientation:
>  <compound>
CC(=O)c1cc2c(cc1NC(=O)CN1CCN(C(=O)c3ncn[nH]3)CC1)OCCO2

>  <pIC50>
7.22

$$$$
>  <compound>
CC(=O)c1cc2c(cc1NC(=O)CN1CCN(C(=O)[C@H]3CCCO3)CC1)OCO2

>  <pIC50>
6.89

$$$$
>  <compound>
CC(=O)c1cc2c(cc1NC(=O)C(C)N1CCN(C(=O)[C@@H]3CCCO3)CC1)OCO2 (some centres unmarked)

>  <pIC50>
7.10

$$$$

Would you mind telling me what pIC50 value was observed for COc1cc2c(cc1NC(=O)CN1CCN(C(=O)C3CCCCO3)CC1)OCO2 (centres unmarked) ?
5.94

Would you kindly share the measured pIC50 for `COC(=O)c1cc2c(cc1NC(=O)CN1CCN(C(C)=O)CC1)OCO2` ?
6.78

Data request, read-out pIC50, for `COc1cccc(C(=O)N2CCN(CC(=O)Nc3cc4c(cc3OC)OCO4)CC2)c1`
6.52

Suppose we examine the compound `COc1cc2c(cc1NC(=O)CN1CCN(C(=O)c3ccc(C)o3)CC1)OCO2` ; what pIC50 value has been reported?
7.10

May I ask what pIC50 has been recorded for `COc1cc2c(cc1NC(=O)CN1CCN(C(=O)c3ccn(C)n3)CC1)OCO2` ?
5.97

====

Recorded log10(IC50) by entry
tgt: hT2R54 (Homo sapiens, UniProt P59534)
Construct: expressed in transfected cells; it overexpresses a promiscuous G protein
assayOverview: Cell-based assay for measuring hT2R54 inhibition (FLIPR calcium, Fluo4AM, acetaminophen as bitter agonist)
appliedConditions: Table 2; cells stably expressing hT2R54 and a promiscuous G protein; read-out: hT2R54 IC50
log10 IC50, µM

These solved cases illustrate the format of a correct answer.
>  <molecule>
COc1cc2c(cc1NC(=O)CN1CCN(C(=O)Cc3cccc(O)c3)CC1)OCO2

>  <log10(IC50)>
-0.40

$$$$
>  <molecule>
CCc1cc2c(cc1NC(=O)CN1CCN(C(=O)C3CCCO3)CC1)OCO2 (stereo not shown)

>  <log10(IC50)>
0.88

$$$$
>  <molecule>
CC(=O)c1cc2c(cc1NC(=O)CN1CCN(C(=O)CN3CCOCC3)CC1)OCO2

>  <log10(IC50)>
-0.97

$$$$
>  <molecule>
CC(=O)c1cc2c(cc1NC(=O)CN1CCN(C(=O)c3nccn3C)CC1)OCO2

>  <log10(IC50)>
-1.51

$$$$
>  <molecule>
COc1cc2c(cc1NC(=O)CN1CCN(C(=O)CC3CCCCO3)CC1)OCO2 (stereo not shown)

>  <log10(IC50)>
-0.30

$$$$

Look up log10(IC50): `COc1cc2c(cc1NC(=O)CN1CCN(C(=O)CC3CCOCC3)CC1)OCO2`
0.02

Consider the molecule shown here: `CCC(=O)N1CCN(CC(=O)Nc2cc3c(cc2C(C)=O)OCO3)CC1` What is its recorded log10(IC50)?
-1.30

Please report the recorded log10(IC50) for `CC(=O)c1cc2c(cc1NC(=O)CN1CCN(S(=O)(=O)C(C)C)CC1)OCO2` .
-0.89

Could you tell me which log10(IC50) is on file for `CC(=O)c1cc2c(cc1NC(=O)CN1CCN(C(=O)c3cccc(CO)c3)CC1)OCO2` ?
-0.40

Item CC(=O)c1cc2c(cc1NC(=O)CN1CCN(C(=O)C3CCCCO3)CC1)OCCO2 (stereo not shown) has what recorded log10(IC50)?
-1.52

# log10(IC50) lookup, item `COCc1nc(C(=O)N2CCN(CC(=O)Nc3cc4c(cc3C(C)=O)OCO4)CC2)cs1`
-1.70

I have this molecule here, `CC(=O)c1cc2c(cc1NC(=O)CN1CCN(C(=O)CC(C)C)CC1)OCO2` , and I need its recorded log10(IC50).
-1.80
